# Test system: S.lutea UC-130
# assay name: Dipped disc agar diffusion assay, S. lutea
# reported conditions: Micrococcus luteus, UC130, 16 h, read-out: Agar Diffusion 1 mg./ml. S.lutea UC-130 (inhibition zone)
measured metric: zone of inhibition at 1000 µg/mL (mm)
Please respond with the number in mm and leave the unit unwritten.

Illustrative cases are given below, each with its answer.
compound | assayed system | measured metric | observed measurement
COC1CC2C=CC3C4OC2(C(C)=CC(C)C(C(C)O)OC1=O)C3C(O)C(C)C4OC(=O)c1cnccn1 (stereo not drawn) [U-61,264, 9-O--Pyrrazine-2-carbonyl] | S.lutea UC-130 | zone of inhibition at 1000 µg/mL | 27
COC1CC2C=CC3C4OC2(C(C)=CC(C)C(C(C)O)OC1=O)C3C(O)C(C)C4OC(=O)c1ccc([N+](=O)[O-])[nH]1 (stereo not drawn) [U-61,427, 9-O--5-Nitropyrrole-2-carbonyl-] | S.lutea UC-130 | zone of inhibition at 1000 µg/mL | 32

Note to self: zone of inhibition at 1000 µg/mL of COC1CC2C=CC3C4OC2(C(C)=CC(C)C(C(C)O)OC1=O)C3C(O)C(C)C4OC(=O)[C@@H]1CCCN1 (stereo partly drawn) [U-60,933, 9-O--L-Pyrolyl-] with S.lutea UC-130 was 38

###

# Test system: S.aureus UC-746
# assay name: Minimum Inhibitory Concentration, microplate broth-dilution, S. aureus UC-746
# reported conditions: Staphylococcus aureus, UC746, read-out: MIC S.aureus UC-746
measured metric: MIC (µg/mL)
Please respond with the number in µg/mL and leave the unit unwritten.

compound | MIC [µg/mL]
COC1CC2C=CC3C4OC2(C(C)=CC(C)C(C(C)O)OC1=O)C3C(OC(=O)c1ccco1)C(C)C4O (centres unmarked) [U-60,905, 11-O--Furoyl-] | 500
COC1CC2C=CC3C4OC2(C(C)=CC(C)C(C(C)O)OC1=O)C3C(O)C(C)C4OC(=O)[C@@H]1CCCN1 (stereo partly drawn) [U-60,933, 9-O--L-Pyrolyl-] | 62.5
COC1CC2C=CC3C4OC2(C(C)=CC(C)C(C(C)O)OC1=O)C3C(O)C(C)C4OC(=O)c1ccco1 (centres unmarked) [U-60,898, 9-O--Furoyl-] | 7.8

Now for a further compound.
Note to self: MIC of COC1CC2C=CC3C4OC2(C(C)=CC(C)C(C(C)O)OC1=O)C3C(O)C(C)C4OC(=O)c1ccncc1 (centres unmarked) [U-60,925, 9-O--Isonicotinoyl] with S.aureus UC-746 was 250

###

# Test system: S.lutea UC-130
# assay name: Dipped disc agar diffusion assay, S. lutea
# reported conditions: Micrococcus luteus, UC130, 16 h, read-out: Agar Diffusion 1 mg./ml. S.lutea UC-130 (inhibition zone)
measured metric: zone of inhibition at 1000 µg/mL (mm)
Please respond with the number in mm and leave the unit unwritten.

Illustrative cases are given below, each with its answer.
compound | assayed system | value units | observed measurement
COC1CC2C=CC3C4OC2(C(C)=CC(C)C(C(C)O)OC1=O)C3C(O)C(C)C4OC(=O)c1ccc[nH]1 (stereo not drawn) [U-59,760, reference compound] | S.lutea UC-130 | mm | 44
COC1CC2C=CC3C4OC2(C(C)=CC(C)C(C(C)OC(=O)c2ccc[nH]2)OC1=O)C3C(O)C(C)C4OC(=O)c1ccc[nH]1 (stereo not drawn) | S.lutea UC-130 | mm | 29
COC1CC2C=CC3C4OC2(C(C)=CC(C)C(C(C)O)OC1=O)C3C(OC(=O)c1ccco1)C(C)C4O (stereo not drawn) | S.lutea UC-130 | mm | 17
COC1CC2C=CC3C4OC2(C(C)=CC(C)C(C(C)O)OC1=O)C3C(O)C(C)C4OC(=O)c1cccn1C (stereo not drawn) | S.lutea UC-130 | mm | 24
COC1CC2C=CC3C4OC2(C(C)=CC(C)C(C(C)OC(=O)c2ccc[nH]2)OC1=O)C3C(O)C(C)C4O (stereo not drawn) | S.lutea UC-130 | mm | 33
COC1CC2C=CC3C4OC2(C(C)=CC(C)C(C(C)O)OC1=O)C3C(O)C(C)C4O (stereo not drawn) | S.lutea UC-130 | mm | 40

Note to self: zone of inhibition at 1000 µg/mL of COC1CC2C=CC3C4OC2(C(C)=CC(C)C(C(C)O)OC1=O)C3C(O)C(C)C4OC(=O)c1ccc(C)[nH]1 (stereo not drawn) with S.lutea UC-130 was 30

Note to self: zone of inhibition at 1000 µg/mL of COC1CC2C=CC3C4OC2(C(C)=CC(C)C(C(C)O)OC1=O)C3C(O)C(C)C4OC(=O)c1cc2ccccc2[nH]1 (stereo not drawn) with S.lutea UC-130 was 22

Note to self: zone of inhibition at 1000 µg/mL of COC1CC2C=CC3C4OC2(C(C)=CC(C)C(C(C)O)OC1=O)C3C(O)C(C)C4OC(=O)c1cccnc1 (stereo not drawn) with S.lutea UC-130 was 32

Note to self: zone of inhibition at 1000 µg/mL of COC1CC2C=CC3C4OC2(C(C)=CC(C)C(C(C)O)OC1=O)C3C(O)C(C)C4OC(=O)c1ccco1 (stereo not drawn) with S.lutea UC-130 was 40

Note to self: zone of inhibition at 1000 µg/mL of COC1CC2C=CC3C4OC2(C(C)=CC(C)C(C(C)O)OC1=O)C3C(O)C(C)C4OC(=O)c1ccccc1 (stereo not drawn) with S.lutea UC-130 was 30

Note to self: zone of inhibition at 1000 µg/mL of COC1CC2C=CC3C4OC2(C(C)=CC(C)C(C(C)O)OC1=O)C3C(O)C(C)C4OC(=O)c1ccc(Br)o1 (stereo not drawn) with S.lutea UC-130 was 35

###

// MIC lookup, one value per entry
# Test system: S.pyrogenes UC-152
# assay name: Minimum Inhibitory Concentration, microplate broth-dilution, S. pyrogenes UC-152
# reported conditions: read-out: MIC S.pyrogenes UC-152
Please respond with the number in µg/mL and leave the unit unwritten.

compound | measured metric | value units | observed measurement
COC1CC2C=CC3C4OC2(C(C)=CC(C)C(C(C)O)OC1=O)C3C(O)C(C)C4OC(=O)c1ccc(C)[nH]1 (stereo not shown) [U-61,265, 9-O--5-Methylpyrrole-2-carbonyl] | MIC | µg/mL | 125
COC1CC2C=CC3C4OC2(C(C)=CC(C)C(C(C)O)OC1=O)C3C(O)C(C)C4OC(=O)c1cccnc1 (stereo not shown) [U-60,906, 9-O--Nicotinoyl-] | MIC | µg/mL | 2500
COC1CC2C=CC3C4OC2(C(C)=CC(C)C(C(C)O)OC1=O)C3C(O)C(C)C4OC(=O)c1cccs1 (stereo not shown) [U-60,989, 9-O--Thiophene-2-carbonyl-] | MIC | µg/mL | 125

Now for a further compound.
Entry COC1CC2C=CC3C4OC2(C(C)=CC(C)C(C(C)O)OC1=O)C3C(O)C(C)C4OC(=O)c1ccc([N+](=O)[O-])o1 (stereo not shown) [U-60,990, 9-O--5-Nitrofuroyl] — recorded MIC = 125

###

// MIC lookup, one value per entry
# Tested on: S.aureus UC-76
# assay name: Minimum Inhibitory Concentration, microplate broth-dilution, S. aureus UC-76
# reported conditions: Staphylococcus aureus, UC76, read-out: MIC S.aureus UC-76

Entry COC1CC2C=CC3C4OC2(C(C)=CC(C)C(C(C)O)OC1=O)C3C(O)C(C)C4OC(=O)c1ccccn1 (stereo not drawn) [U-60,909, 9-O--Picolinoyl-] — recorded MIC = > 250 µg/mL

Entry COC1CC2C=CC3C4OC2(C(C)=CC(C)C(C(C)O)OC1=O)C3C(O)C(C)C4OC(=O)c1cnccn1 (stereo not drawn) [U-61,264, 9-O--Pyrrazine-2-carbonyl] — recorded MIC = > 125 µg/mL

Entry COC1CC2C=CC3C4OC2(C(C)=CC(C)C(C(C)O)OC1=O)C3C(O)C(C)C4OC(=O)c1ccc(C)[nH]1 (stereo not drawn) [U-61,265, 9-O--5-Methylpyrrole-2-carbonyl] — recorded MIC = 31.2 µg/mL

###

// zone of inhibition at 1000 µg/mL lookup, one value per entry
# Test system: S.lutea UC-130
# assay name: Dipped disc agar diffusion assay, S. lutea
# reported conditions: Micrococcus luteus, UC130, 16 h, read-out: Agar Diffusion 1 mg./ml. S.lutea UC-130 (inhibition zone)
Please respond with the number in mm and leave the unit unwritten.

molecule | value units | observed measurement
COC1CC2C=CC3C4OC2(C(C)=CC(C)C(C(C)O)OC1=O)C3C(O)C(C)C4OC(=O)c1ccncc1 (stereo not drawn) | mm | 38
COC1CC2C=CC3C4OC2(C(C)=CC(C)C(C(C)O)OC1=O)C3C(O)C(C)C4OC(=O)c1cc([N+](=O)[O-])c[nH]1 (stereo not drawn) | mm | 36
COC1CC2C=CC3C4OC2(C(C)=CC(C)C(C(C)O)OC1=O)C3C(O)C(C)C4OC(=O)c1ccc([N+](=O)[O-])o1 (stereo not drawn) | mm | 33

Entry COC1CC2C=CC3C4OC2(C(C)=CC(C)C(C(C)O)OC1=O)C3C(O)C(C)C4OC(=O)c1ccsc1 (stereo not drawn) — recorded zone of inhibition at 1000 µg/mL = 40

Entry COC1CC2C=CC3C4OC2(C(C)=CC(C)C(C(C)O)OC1=O)C3C(O)C(C)C4OC(=O)c1ccccn1 (stereo not drawn) — recorded zone of inhibition at 1000 µg/mL = 31

Entry COC1CC2C=CC3C4OC2(C(C)=CC(C)C(C(C)O)OC1=O)C3C(O)C(C)C4OC(=O)c1cccs1 (stereo not drawn) — recorded zone of inhibition at 1000 µg/mL = 41
